Just for reference, patent US12643910B2 is where these values come from.

As shown below, each of these molecules has a reported IC50 value.
biological target: human ENPP1 (Homo sapiens, UniProt P22413); construct: made in house; experiment: ENPP1 assay with ATP substrate (Transcreener AMP2/GMP2 TR-FRET); type: biochemical; conditions: 1 hour at room temperature
Sequence (P22413 whole entry): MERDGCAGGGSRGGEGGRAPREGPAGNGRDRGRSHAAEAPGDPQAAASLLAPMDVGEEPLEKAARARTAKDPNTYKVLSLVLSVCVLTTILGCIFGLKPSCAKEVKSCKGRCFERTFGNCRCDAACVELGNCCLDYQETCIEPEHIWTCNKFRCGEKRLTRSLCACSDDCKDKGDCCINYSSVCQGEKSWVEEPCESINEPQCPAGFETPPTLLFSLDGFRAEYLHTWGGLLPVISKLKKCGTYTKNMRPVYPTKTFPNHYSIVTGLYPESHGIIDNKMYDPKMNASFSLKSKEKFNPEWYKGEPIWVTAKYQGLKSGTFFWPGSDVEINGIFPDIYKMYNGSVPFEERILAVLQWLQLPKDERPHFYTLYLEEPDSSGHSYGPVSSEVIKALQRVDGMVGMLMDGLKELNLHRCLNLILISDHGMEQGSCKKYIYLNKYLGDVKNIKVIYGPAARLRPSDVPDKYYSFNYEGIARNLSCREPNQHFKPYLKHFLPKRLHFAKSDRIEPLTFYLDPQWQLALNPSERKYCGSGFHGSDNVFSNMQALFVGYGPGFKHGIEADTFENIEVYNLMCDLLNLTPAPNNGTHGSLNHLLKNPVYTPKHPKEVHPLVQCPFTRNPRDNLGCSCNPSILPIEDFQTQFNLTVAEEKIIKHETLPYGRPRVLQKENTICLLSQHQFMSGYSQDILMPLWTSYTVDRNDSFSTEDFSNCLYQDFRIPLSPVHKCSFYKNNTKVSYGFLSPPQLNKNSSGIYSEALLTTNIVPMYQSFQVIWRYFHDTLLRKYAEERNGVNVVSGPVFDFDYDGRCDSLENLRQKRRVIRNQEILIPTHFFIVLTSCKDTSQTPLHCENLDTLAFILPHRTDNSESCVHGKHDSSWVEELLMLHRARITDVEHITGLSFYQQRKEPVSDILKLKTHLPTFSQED

Challenge: # get_value(readout='IC50', item= Cn1ncc2c(NCc3ccc(S(N)(=O)=O)c(Cl)c3)ncnc21 )
Response given: 0.1 to 1 µM

Challenge: Moving on to the next molecule: Cc1nc(NCc2ccc(S(N)(=O)=O)s2)c2c(-c3ccccc3)csc2n1
Response given: > 20 µM

Challenge: Entry Cc1csc2c(N3CCC(NCC4CC4c4ccncc4)CC3)ncnc12 (stereo not drawn) please
Response given: 0.1 to 1 µM

***
Challenge: Reported IC50 for Cn1ncc2c(NCc3ccc(S(N)(=O)=O)cn3)cc(Cl)nc21 : what is it?
Response given: < 0.1 µM

Challenge: Thanks! And Cc1cccc(CCC(=O)NC2CCN(c3ncnc4c(C)csc34)CC2)c1 ?
Response given: > 20 µM

Challenge: Note, next up: Cc1csc2c(N3CCC(NCCCc4ccc(C#N)cc4)CC3)ncnc12
Response given: 0.1 to 1 µM

Challenge: Now consider CCNc1nc(NCc2ccc(S(N)(=O)=O)cc2F)c2cnn(C)c2n1 and answer again.
Response given: 0.1 to 1 µM

Challenge: Now consider Cc1nc(N2CCC(NCCCc3ccncc3)CC2)c2cnn(C)c2n1 .
Response given: > 20 µM

Challenge: Also CCNc1cc(NCc2ccc(S(N)(=O)=O)cc2F)c2cnn(C)c2n1 , if possible.
Response given: 0.1 to 1 µM

Challenge: Same read-out for O=C(CCc1ccc(F)cc1)NC1CCN(c2ncnc3ccsc23)CC1 ?
Response given: > 20 µM

Challenge: Similarly, NS(=O)(=O)c1ccc(CNc2cc(-c3ccccn3)nc3scc(-c4ccccc4)c23)cc1 ?
Response given: < 0.1 µM

Challenge: Try this molecule too: COc1cc(CCC(=O)NC2CCN(c3ncnc4c(C)csc34)CC2)ccn1
Response given: 1 to 20 µM

Challenge: Another molecule to check: CN(C)c1nc(NCc2ccc(S(N)(=O)=O)cc2)c2c(-c3ccccc3)csc2n1
Response given: < 0.1 µM

Challenge: Also need Cc1csc2c(N3CCC(NCCCc4ccncc4)C3)ncnc12 (stereo not drawn) , thanks.
Response given: 0.1 to 1 µM

Challenge: # iterate: NS(=O)(=O)c1ccc(CNc2nc(Cl)nc3c2cnn3CC(F)(F)F)cc1
Response given: 1 to 20 µM

Challenge: Also, Cn1ncc2c(NCc3ccccc3)nc(-c3ccccn3)nc21 please.
Response given: > 20 µM

Challenge: Subsequent entry: Cn1nc(-c2ccccc2)c2c(NCc3ccc(S(N)(=O)=O)cc3)nc(N3CCCCC3)nc21
Response given: < 0.1 µM

Challenge: Repeat for the following molecule: Cc1cc(CNc2ncnc3c2cnn3C)ccc1S(N)(=O)=O
Response given: 1 to 20 µM

Challenge: Repeat for the following molecule: CNc1nc(N2CCC(NCCCc3cnccc3C)CC2)c2scc(C)c2n1
Response given: 1 to 20 µM

Challenge: Now the molecule Cn1ncc2c(NCc3ccncc3)nc(-c3ccccn3)nc21
Response given: 1 to 20 µM

Challenge: Next molecule: CCN(CCO)c1nc(NCc2ccc(S(N)(=O)=O)cc2)c2c(-c3ccccc3)csc2n1
Response given: < 0.1 µM

Challenge: Further, for Cn1ncc2c(N3CCC(NCCCc4ccncc4)CC3)nc(-c3ccccc3)nc21 ?
Response given: > 20 µM

* * *

biological target: ENPP3 (Homo sapiens); experiment: ENPP3 Km ATP assay; format: biochemical; details: ATP at Km
RECORDED_ENDPOINT: IC50

Challenge: API: value(readout=IC50, system=ENPP3 (Homo sapiens)) for record Cn1ncc2c(NCc3ccc(S(N)(=O)=O)cc3)cc(C3CC3)nc21 [Example 2.134]
Response given: 1 to 20 µM

Challenge: Entry Cc1nc(NCc2ccc(S(N)(=O)=O)cc2)c2cnn(C)c2n1 [Example 2.26] please
Response given: 0.1 to 1 µM

Challenge: Try this compound next: NS(=O)(=O)c1ccc(CNc2ncnc3scc(Br)c23)cc1 [Example 1.49]
Response given: < 0.1 µM

Challenge: Another compound: CN1CCN(c2nc(NCc3ccc(S(N)(=O)=O)cc3)c3cnn(C)c3n2)CC1 [Example 2.34]
Response given: 0.1 to 1 µM

Challenge: Also Cn1nnc2c(NCc3ccc(S(N)(=O)=O)cc3)ncnc21 [Example 2.58] ?
Response given: 1 to 20 µM

Challenge: And the next one, Fc1cccc(CNc2nc(-c3ccccn3)nc3scc(-c4ccccc4)c23)c1 [Example 1.9] ?
Response given: > 20 µM

Challenge: // same read-out, input: CC(Nc1ncnc2scc(-c3ccccc3)c12)c1ccc(S(N)(=O)=O)cc1 (stereo not drawn) [Example 1.65]
Response given: 1 to 20 µM

Challenge: Moving on to NS(=O)(=O)c1ccc(CNc2nc(Cl)nc3c2cnn3C2CC2)cc1 [Example 2.84]
Response given: 1 to 20 µM

Now for a further compound.
Challenge: What IC50 appears in the records for this compound with ENPP3 (Homo sapiens)? NS(=O)(=O)c1ccc(CNc2nc(-c3ccccc3)nc3scc(-c4ccccc4)c23)s1 [Example 1.27]
Response given: > 20 µM

* * *

Consider the following compounds and their measured IC50 readings.
molecular target: human ENPP1 (Homo sapiens, UniProt P22413); construct: made in house; assay: ENPP1 assay with ATP substrate (Transcreener AMP2/GMP2 TR-FRET); type: biochemical; conditions: 1 hour at room temperature

Worked examples follow.
Challenge: Notebook entry, human ENPP1 (Homo sapiens, UniProt P22413) assay: IC50 of Cn1ncc2c(NCc3ccc(S(N)(=O)=O)cc3)ccnc21 [Example 2.60] = ?
Response given: < 0.1 µM

Challenge: And for COCCN(C)c1nc(NCc2ccc(S(N)(=O)=O)cc2)c2c(-c3ccccc3)csc2n1 [Example 1.55] ?
Response given: < 0.1 µM

Challenge: Try this compound next: NS(=O)(=O)c1ccc(CNc2nc(NC3CCCCC3)nc3scc(-c4ccccc4)c23)cc1 [Example 1.40]
Response given: 0.1 to 1 µM

Challenge: Next up: NS(=O)(=O)c1ccc(CNc2ncnc3c2cnn3-c2ccccc2)cc1 [Example 2.38]
Response given: 1 to 20 µM

More entries:
Challenge: Recall the recorded IC50 for NS(=O)(=O)c1ccc(CNc2nc(-c3ccccn3)nc3scc(-c4ccccc4)c23)cc1Cl [Example 1.18] with human ENPP1 (Homo sapiens, UniProt P22413) and state it.
Response given: < 0.1 µM

Challenge: Proceed to Cn1ncc2c(NCc3cccs3)nc(-c3ccccn3)nc21 [Example 2.21]
Response given: > 20 µM

Challenge: Request: CN1CCN(c2nc(NCc3ccc(S(N)(=O)=O)cc3)c3cnn(C)c3n2)CC1 [Example 2.34]
Response given: > 20 µM

Challenge: Also Cn1nc(Cl)c2c(NCc3ccc(S(N)(=O)=O)cc3)ncnc21 [Example 2.90] ?
Response given: 0.1 to 1 µM

* * *

Target: ENPP3 (Homo sapiens, UniProt O14638)
Sequence (O14638 1-875): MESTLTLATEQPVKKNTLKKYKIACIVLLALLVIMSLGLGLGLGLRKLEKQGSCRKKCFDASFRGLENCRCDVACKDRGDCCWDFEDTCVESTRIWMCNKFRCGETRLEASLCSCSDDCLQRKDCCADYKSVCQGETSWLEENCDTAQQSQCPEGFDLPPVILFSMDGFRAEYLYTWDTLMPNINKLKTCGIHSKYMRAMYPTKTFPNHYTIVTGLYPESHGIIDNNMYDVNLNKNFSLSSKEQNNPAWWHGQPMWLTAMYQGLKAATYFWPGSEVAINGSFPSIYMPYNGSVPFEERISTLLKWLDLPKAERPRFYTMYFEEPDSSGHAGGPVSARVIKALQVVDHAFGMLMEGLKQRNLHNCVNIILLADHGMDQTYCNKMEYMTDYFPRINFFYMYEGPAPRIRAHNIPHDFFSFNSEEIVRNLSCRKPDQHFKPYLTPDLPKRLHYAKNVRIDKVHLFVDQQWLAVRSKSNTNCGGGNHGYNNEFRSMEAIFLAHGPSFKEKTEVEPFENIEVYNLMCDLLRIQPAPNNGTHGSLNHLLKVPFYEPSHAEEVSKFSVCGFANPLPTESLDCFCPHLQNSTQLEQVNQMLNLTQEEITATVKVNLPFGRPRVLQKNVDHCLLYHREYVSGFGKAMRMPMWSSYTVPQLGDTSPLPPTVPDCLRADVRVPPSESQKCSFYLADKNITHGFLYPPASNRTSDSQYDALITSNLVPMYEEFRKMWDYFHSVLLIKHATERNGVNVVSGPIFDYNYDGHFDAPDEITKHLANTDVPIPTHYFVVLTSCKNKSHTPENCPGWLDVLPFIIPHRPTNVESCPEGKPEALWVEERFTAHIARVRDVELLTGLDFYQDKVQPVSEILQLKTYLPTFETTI
Experiment: ENPP3 Km ATP assay
Assay type: biochemical
Conditions: ATP at Km
IC50: recorded values

Worked examples, 5 compounds total:
Challenge: Which IC50 is listed for Cc1csc2c(N3CCC(NCCCc4ccccc4F)CC3)ncnc12 ?
Response given: > 20 µM

Challenge: Please do the same for Cc1csc2c(N3CCC(NCCc4ccncc4)CC3)ncnc12 as well.
Response given: > 20 µM

Challenge: Could you do the same for CCN(c1nc(NCc2ccc(S(N)(=O)=O)cc2)c2c(-c3ccccc3)csc2n1)C(C)(C)CO , please?
Response given: 0.1 to 1 µM

Challenge: And Cc1csc2c(N3CCN(CCCCc4ccncc4)CC3)ncnc12 ?
Response given: > 20 µM

Challenge: What about NS(=O)(=O)c1ccc(CNc2nc(-c3ccccn3)nc3scc(-c4ccccc4)c23)cc1C(F)(F)F ?
Response given: 0.1 to 1 µM

Others:
Challenge: May I ask what IC50 has been recorded for NS(=O)(=O)c1ccc(CNc2nc(-c3ccccc3)nc3scc(-c4ccccc4)c23)cc1 ?
Response given: > 20 µM

Challenge: Lookup NS(=O)(=O)c1ccc(CNc2nc(-c3ccccn3)nc3scc(-c4ccccc4)c23)c(Cl)c1
Response given: 0.1 to 1 µM

Challenge: Proceed to Cc1cc(S(N)(=O)=O)ccc1CNc1ccnc2c1cnn2C
Response given: 1 to 20 µM
